Assay: qHTS assay to identify small molecule agonists of the estrogen receptor beta (ER-beta) signaling pathway - cell viability counter screen (AID 1259380); note: nearly all actives have a fitted effect of over 30% in size
Settings: ER-beta-bla HEK293T viability, CellTiter-Glo luminescence, 16 h; series mostly up to 92.4 µM
Results filed as inconclusive are left out. Calls of active or inactive are those of the source. Calls come from the whole dose curve; as a rule, active = well fitted cell-killing curve with a large enough effect in the repeat runs; inconclusive = weak or mixed curves, or effect the other way; inactive = flat fitted curve, though single readings scatter.
Response enum: active, inactive

CCC(C)c1cc(C(C)(C)C)cc(-n2nc3ccccc3n2)c1O (stereo not drawn) :: inactive

# input for lookup
Inquiry: Dear colleague, could you share the recorded outcome for C[C@@H](Oc1ccc(Cl)cc1Cl)C(=O)O when you have a moment?
Reply text: inactive

====

Test: qHTS assay to identify small molecule antagonists of the farnesoid-X-receptor (FXR) signaling pathway - cell viability counter screen (AID 743221); note: nearly all actives have a fitted effect of over 50% in size
Conditions: FXR-bla HEK293T viability, CellTiter-Glo luminescence, 16 h; series mostly up to 62.6 µM
Inconclusive results are not listed. Activity calls are given as the source filed them. Calls follow the shape of the dose curve; as a rule, active = well fitted cell-killing curve with a large enough effect in the repeat runs (not every such curve was filed as active); inconclusive = weak or mixed curves, or effect the other way; inactive = no such curve, though single readings can be large or run the other way.
Write down one outcome, taken from active, inactive

CC(C)N1C(=O)N(c2ccccc2)CSC1=NC(C)(C)C :: inactive
S=C(SSC(=S)N1CCCCC1)N1CCCCC1 :: active
CN(C)C1CSSSC1 :: inactive

Inquiry: Lab log entry: C=CC(=O)OCC(COC(=O)C=C)(COC(=O)C=C)COC(=O)C=C — outcome as called in the assay?
Reply text: active

Inquiry: And the next one, COc1cccc2c1C(=O)c1c(O)c3c(c(O)c1C2=O)C[C@@](O)(C(=O)CO)CC3OC1CC(N2CCOC(OC)C2)C(O)C(C)O1 (stereo partly specified) ?
Reply text: inactive

Inquiry: Repeat with O=C(NC(=O)c1c(F)cccc1F)Nc1cc(Cl)c(OC(F)(F)C(F)F)c(Cl)c1
Reply text: inactive

Inquiry: # iterate: N#CCCSCCC#N
Reply text: inactive

Inquiry: Now give it for O=C(O)C1C2CCC(O2)C1C(=O)O (stereo unspecified) too.
Reply text: inactive

Inquiry: Let us now turn to Nc1ccccc1C(=O)Oc1ccc2ccccc2c1
Reply text: inactive

Inquiry: Thanks! And Nc1ccccc1C(=O)OC/C=C/c1ccccc1 ?
Reply text: inactive

Inquiry: Could you do the same for NNC(=O)c1ccccc1 , please?
Reply text: inactive
